result-type: melting point

Worked cases, melting point given:
INSERT INTO measurements (compound, assay_value) VALUES
  ('Oc1ccc(-c2nnc(Cc3cc4ccccc4[nH]3)o2)cc1O [Compound 7]', '316 to 317 °C'),
  ('O=[N+]([O-])c1ccc(-c2nnc(Cc3cc4ccccc4[nH]3)o2)cc1 [Compound 12]', '309 to 310 °C'),
  ('Cc1ccccc1-c1nnc(Cc2cc3ccccc3[nH]2)o1 [Compound 2]', '300 to 301 °C'),
  ('Oc1cccc(-c2nnc(Cc3cc4ccccc4[nH]3)o2)c1O [Compound 6]', '317 to 318 °C');

Now look at this entry.
Inquiry: Query melting point for COc1ccc(O)c(-c2nnc(Cc3cc4ccccc4[nH]3)o2)c1 [Compound 13]
Reply text: 313 to 314 °C

====

tested-system: β-glucuronidase (Bos taurus)
Sequence (A3KMY8 24-652): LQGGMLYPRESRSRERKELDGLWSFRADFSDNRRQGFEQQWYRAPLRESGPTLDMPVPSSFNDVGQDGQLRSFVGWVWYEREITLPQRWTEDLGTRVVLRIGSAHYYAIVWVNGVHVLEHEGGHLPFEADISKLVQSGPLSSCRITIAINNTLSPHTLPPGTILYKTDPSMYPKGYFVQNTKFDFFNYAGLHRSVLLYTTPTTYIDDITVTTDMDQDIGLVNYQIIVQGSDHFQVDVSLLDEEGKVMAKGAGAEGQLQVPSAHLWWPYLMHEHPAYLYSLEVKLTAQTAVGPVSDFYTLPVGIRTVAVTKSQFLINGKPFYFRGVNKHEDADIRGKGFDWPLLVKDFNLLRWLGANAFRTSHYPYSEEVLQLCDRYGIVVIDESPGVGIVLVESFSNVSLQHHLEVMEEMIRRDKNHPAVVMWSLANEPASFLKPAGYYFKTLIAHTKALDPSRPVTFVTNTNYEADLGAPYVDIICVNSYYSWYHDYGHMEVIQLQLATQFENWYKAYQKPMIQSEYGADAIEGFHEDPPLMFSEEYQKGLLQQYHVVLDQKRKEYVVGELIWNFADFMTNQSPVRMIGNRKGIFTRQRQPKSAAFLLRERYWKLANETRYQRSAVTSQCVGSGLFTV
protocol-text: β-Glucuronidase assay (p-nitrophenyl-β-D-glucuronide, absorbance at 405 nm)
Format: biochemical
applied-conditions: classified into three groups from Table 1
Description: β-glucuronidase activity was determined in accordance to method used by measuring absorbance at 405 nm of p-nitrophenol formed substrate by spectrophotometric method. 250 µL was the volume of total reaction. […] At 405 nm the plates were recorded on multiplate reader (SpectaMax plus 384) after the addition of 50 µL of 0.4mM p-nitrophenyl-β-D-glucuronide. […]
result-type: activity group according to inhibitory IC50 values

Worked cases, activity group according to inhibitory IC50 values given:
INSERT INTO assay_data (structure, assay_value) VALUES
  ('Oc1cccc(-c2nnc(Cc3cc4ccccc4[nH]3)o2)c1', 'moderate active group'),
  ('Oc1ccc(O)c(-c2nnc(Cc3cc4ccccc4[nH]3)o2)c1', 'moderate active group'),
  ('Cc1ccc(-c2nnc(Cc3cc4ccccc4[nH]3)o2)cc1', 'low active group'),
  ('Oc1cccc(-c2nnc(Cc3cc4ccccc4[nH]3)o2)c1O', 'Highly active group'),
  ('Cc1ccccc1-c1nnc(Cc2cc3ccccc3[nH]2)o1', 'low active group');

Now look at this entry.
Inquiry: Query activity group according to inhibitory IC50 values for Oc1ccc(-c2nnc(Cc3cc4ccccc4[nH]3)o2)cc1O
Reply text: Highly active group

====

Each entry below carries its recorded melting point.

INSERT INTO results (structure, result_type, assay_value) VALUES
  ('Oc1ccccc1-c1nnc(Cc2cc3ccccc3[nH]2)o1', 'melting point', '314 to 315 °C'),
  ('c1ccc2[nH]c(Cc3nnc(-c4ccncc4)o3)cc2c1', 'melting point', '284 to 285 °C'),
  ('Fc1ccccc1-c1nnc(Cc2cc3ccccc3[nH]2)o1', 'melting point', '294 to 295 °C'),
  ('Oc1ccc(-c2nnc(Cc3cc4ccccc4[nH]3)o2)c(O)c1', 'melting point', '318 to 319 °C'),
  ('O=[N+]([O-])c1ccccc1-c1nnc(Cc2cc3ccccc3[nH]2)o1', 'melting point', '307 to 308 °C');

Inquiry: Query melting point for Cc1ccc(-c2nnc(Cc3cc4ccccc4[nH]3)o2)cc1
Reply text: 304 to 305 °C

Inquiry: Query melting point for c1cncc(-c2nnc(Cc3cc4ccccc4[nH]3)o2)c1
Reply text: 279 to 280 °C

Inquiry: Query melting point for O=[N+]([O-])c1cccc(-c2nnc(Cc3cc4ccccc4[nH]3)o2)c1
Reply text: 303 to 304 °C

Inquiry: Query melting point for Oc1cccc(-c2nnc(Cc3cc4ccccc4[nH]3)o2)c1
Reply text: 311 to 312 °C
